pKd values for the binders below.
molecular target: T1, SARS-CoV-2 Delta variant RBD protein (L452R and T478K) (SARS-CoV-2, UniProt P0DTC2 319-541); experiment: SPR, Biacore 8K, RBD on CM5 chip, IgG injected, 1:1 model
T1 construct: domain: RBD; also called L452R和T478K
Just so you know, pKd here is -log10 of the concentration in molar units; reply with that number alone.

Some binders with recorded pKd:
VacW-201 (antibody, V domains shown) VH: EVQLVESGGGLVQPGGSLRLSCAASGFTFSSYWMNWVRQAPGKGLEWVANIKQDGSEKYYVDSVKGRFTISRDNAKNSLYLQMNSLRAEDTAVYYCARMEYPYGGVDYWGQGTLVTVSS VL: NFMLTQPHSVSESPGKTVTISCTGSSGSIASNYVQWYQQRPGSAPTTVIYEDNQRPSGVPDRFSGSIDSSSNSASLTISGLKTEDEADYYCQSYDSSNRNWVFGGGTKLTVL
8.67
VacW-212 (antibody, V domains shown) VH: EVQLVESGGGLVQPGGSLRLSCAASGFTFSSYWMNWVRQAPGKGLEWVANIKQDESEKYYVDSVKGRFTISRDNAKNSLFLQMNSLRVEDTAVYYCARMEYPYGGIDYWGQGTLVTVSA VL: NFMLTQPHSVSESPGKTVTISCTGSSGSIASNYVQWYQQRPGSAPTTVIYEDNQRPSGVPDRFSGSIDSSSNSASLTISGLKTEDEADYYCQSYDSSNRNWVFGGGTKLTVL
8.74
VacW-215 (antibody, V domains shown) VH: EVQLVESGGGLIQPGGSLRLSCAASGFTVSSNYMSWVRQAPGKGLEWVSVIYSGGSTYYADSVKGRFTISRDNSKNTLYLQMNSLRAEDTAVYYCARSTWLRGGFDYWGQGTLVTVSS VL: NFMLTQPHSVSESPGKTVTISCTGSSGSIASNYVQWYQQRPGSAPTTVIYEDNQRPSGVPDRFSGSIDSSSNSASLTISGLKTEDEADYYCQSYDSSNHFYVFGTGTKVTVL
8.99

Let's switch to this binder now.
Incoming: Fill in: pKd of VacW-209 (antibody, V domains shown) VH: QVQLVESGGGVVQPGRSLRLSCAASGFTFSSIAMHWVRQAPGKGLEWVAVMSFDGSIKYYGDSVKGRFTISRDNSKSTLYLQMNSLRAEDTAVYYCARGVQGYYDRSGYYNLDYNYGMDVWGQGTTVTVSS VL: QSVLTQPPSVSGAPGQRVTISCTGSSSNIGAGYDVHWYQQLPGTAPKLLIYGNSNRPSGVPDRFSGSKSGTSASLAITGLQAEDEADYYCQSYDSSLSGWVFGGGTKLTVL is ___
Outgoing: 10.33
